Origin of values: PubChem BioAssay AID1996

Condition Info: buffer; pH 7.4; 200.0 µM
Each entry below carries its recorded solubility kinetic.

Compound	solubility kinetic
O=C(c1cc(-c2ccc(O)cc2)on1)N1CCCC1	> 0.0387 mg/mL
O=C(Nc1ccccc1)OCC1CCCO1 (stereo not drawn)	> 0.0332 mg/mL
COC(=O)C(Cc1ccccc1)NC(=O)CCNC(=O)c1ccco1 (stereo not drawn)	> 0.0517 mg/mL

====

Condition Info: buffer; pH 7.4; 200.0 µM

Compound	solubility kinetic
Cn1ccnc1C(OC(=O)c1ccccc1)C(F)(F)F (stereo not drawn)	> 42.6 µg/mL
Cc1ccc(SCC(=O)NC(C)c2ccccc2)cc1 (stereo not drawn)	> 42.8 µg/mL
O=C(CCNC(=O)c1ccco1)Nc1ccccc1	> 38.7 µg/mL

====

Each entry below carries its recorded solubility kinetic.
Condition Info: buffer; pH 7.4; 200.0 µM
Measurement Type: solubility kinetic (µg/mL)

Molecule	Unit Abbreviation	Prefix Operator	Readout Number
CC1(C)Cc2c(C#N)c(N)n(-c3ccccc3)c(=S)c2CO1	µg/mL	>	46.7
CCOc1ccc2[nH]c3c(NCCc4ccc(OC)c(OC)c4)ncnc3c2c1	µg/mL	=	5.9
CCOC(=O)c1cc(-c2csc(COc3ccccc3Cl)n2)on1	µg/mL	<	0.4
CC(=O)Nc1ccc2c(c1)N(C(C)=O)c1ccccc1CC2	µg/mL	>	44.2
CN(C)c1cccc(NC(=O)NC2(C)CCS(=O)(=O)C2)c1 (centres undefined)	µg/mL	>	46.7
O=[N+]([O-])c1ccccc1Nc1nc(-c2cccnc2)cs1	µg/mL	=	1.7
CCOC(=O)c1c(C)[nH]c(C(=O)OCc2ccc(C)cc2)c1C	µg/mL	=	3.2
O=C1ON=C(c2ccccc2)/C1=C/c1cccnc1	µg/mL	=	35.8
O=C(O)Cn1nc(-c2ccccc2)cc1-c1ccccc1	µg/mL	>	41.7

====

Condition Info: buffer; pH 7.4; 200.0 µM

Molecule	solubility kinetic
CC(Cc1c[nH]c2ccccc12)C(=O)NCc1ccco1 (stereo unspecified)	> 42.4 µg/mL
CC(C)c1ccc(NC2CCCN(C(=O)c3ccoc3)C2)cc1 (stereo unspecified)	> 46.9 µg/mL
CCCN(CCC)C(=O)c1cc2c(=O)[nH]c3ccc(C)cc3c2s1	< 0.4 µg/mL
Cc1ccc(C(=O)NC(C)c2ccncc2)o1 (stereo unspecified)	> 34.5 µg/mL
CC(CCc1ccccc1)NC(=O)C1CCC1 (stereo unspecified)	> 34.7 µg/mL
O=C(CN1CCN(c2ccc(F)cc2)CC1)Nc1ccccc1	> 47 µg/mL

====

Condition Info: buffer; pH 7.4; 200.0 µM

Molecule	solubility kinetic
O=C1NC2(CCCC2)C(=O)N1Cc1cc(=O)n2ccsc2n1	> 47.8 µg/mL
O=C(O)c1ccc(NC(=O)C(c2ccccc2)c2ccccc2)cc1	> 49.7 µg/mL
C[C@H](NC(=O)[C@@H]1Cc2ccccc2CN1)C(=O)NC1CCCC1	> 47.3 µg/mL
CCCC(=O)NC(=S)Nc1ccc(CN2CCOCC2)cc1	> 48.2 µg/mL
CCN1CCN(C(=O)C(Cc2ccccc2)NC(=O)c2ccc(Cl)c(S(=O)(=O)N(C)C)c2)CC1 (stereo not drawn)	> 76.1 µg/mL
C/C(=N\NC(N)=S)c1cccnc1	> 29.1 µg/mL
CCC(CC)NC(=O)c1cccc(Oc2ccccc2)c1	5.2 µg/mL
O=C(c1cc(=O)[nH]c2ccccc12)N1CCN(c2ccccc2)CC1	> 50 µg/mL
O=C(NCC1CCCO1)c1csc(Nc2cccc3ccccc23)n1 (stereo not drawn)	28.5 µg/mL
COCCOC(=O)c1sc2nc[nH]c(=O)c2c1C	> 40.2 µg/mL
CCOC(=O)C(NC(C)=O)C(O)c1ccc([N+](=O)[O-])cc1 (stereo not drawn)	43.2 µg/mL
CCC1CN(C(=O)NCc2ccc(F)cc2)c2cc(Cl)ccc2O1 (stereo not drawn)	1.3 µg/mL
CCN1CCCC1CNS(=O)(=O)c1ccc(F)c(Cl)c1 (stereo not drawn)	44.2 µg/mL

====

Condition Info: buffer; pH 7.4; 200.0 µM
Measurement Type: solubility kinetic

Compound	Result
CCN(CC(=O)NCc1ccc(Cl)cc1)C(=O)c1cc(S(=O)(=O)N2CCOCC2)ccc1C	> 74.1 µg/mL
Cl.O=C(CN1CCCC1)Nc1ccc(Br)cc1	> 47.9 µg/mL
CC1Oc2ccccc2N(CC(=O)NCCN2CCOCC2)C1=O (centres undefined)	> 50 µg/mL
O=C(N/C(=C\c1ccc(Cl)cc1)C(=O)N1CCOCC1)c1ccco1	> 54.1 µg/mL
O=C(CNC(=O)c1ccccc1Cl)Nc1ccncc1	> 43.5 µg/mL
COc1ccc2c(c1)CCC/C2=N\OC(=O)c1ccccc1F	< 0.7 µg/mL
CCn1c(O)c(C=NCCN2CCOCC2)c(=O)n(CC)c1=S	> 51.1 µg/mL
Nc1nc(NCC(=O)O)nc(NC2CCCCC2)c1[N+](=O)[O-]	> 46.5 µg/mL
O=C(O)/C=C\C(=O)NCc1cccnc1	> 30.9 µg/mL

====

Each entry below carries its recorded solubility kinetic.
Condition Info: buffer; pH 7.4; 200.0 µM

Compound	solubility kinetic
COc1ccc(C(C)NC(=O)C2CCCC2)cc1OC (stereo unspecified)	> 41.6 µg/mL
Cc1ccc(CN(C)C(=O)c2c(C)nn(-c3ccccc3)c2C)cc1	> 50 µg/mL
CC(=O)N1c2ccccc2CCc2ccc([N+](=O)[O-])cc21	> 42.3 µg/mL
CC1(C)Cc2cccc(OCC(=O)NCc3cccs3)c2O1	> 47.6 µg/mL
Cn1c(=O)c2ccccc2n2c(=S)[nH]nc12	> 34.8 µg/mL
CC(=O)N1N=C(N)SC1(C)C	> 26 µg/mL

====

Condition Info: buffer; pH 7.4; 200.0 µM
Assign Yes to entries whose solubility kinetic meets or exceeds 6 µg/mL; assign No to the rest.

Compound	Classification
Cn1nccc1C(=O)N1CCN(c2ccccc2F)CC1	Yes
CC(C)CC(=O)N1CCN(C(=O)c2ccco2)CC1	Yes
CC(Sc1nnc(C(F)(F)F)n1C)C(=O)Nc1ccc(N2CCOCC2)cc1 (stereo not drawn)	Yes
OCc1cccc[n+]1CCc1ccccc1.[Br-]	Yes
COc1cccc(NC(=O)N2CCCCCC2)c1	Yes
CCCNC(=O)CSc1nccn1Cc1ccco1	Yes
Cc1ccc(C)c(N(CC(=O)N2CCCC2)S(C)(=O)=O)c1	Yes
COc1cccc(CNC(=O)Cn2ccc([N+](=O)[O-])n2)c1	Yes
Cc1csc(NC(=O)CSc2nccn2Cc2ccco2)n1	Yes
NS(=O)(=O)c1ccc(NC(=O)c2ccc(S(=O)(=O)N3CCCCCC3)cc2)cc1	Yes
O=C(CNC(=O)c1cccs1)NCC(=O)OCC(=O)c1ccccc1	Yes
COc1ccc(C(=O)O)cc1S(=O)(=O)NC1CCN(Cc2ccccc2)CC1	Yes
O=c1oc(-c2cccc([N+](=O)[O-])c2)nc2ccccc12	No
CN(C)S(=O)(=O)c1cccc(NC(=S)NCc2ccco2)c1	Yes
O=C(NC(=S)NCc1ccccc1Cl)c1cccs1	No
Cc1ccc(C)c(S(=O)(=O)NCCCN2CCOCC2)c1	Yes
CN(Cc1ccc(F)cc1)C(=O)c1ccc2c(c1)NC(=O)CS2	Yes
CC1CC(NC(=O)/C=C/C(=O)O)CC(C)(C)C1 (stereo not drawn)	Yes
Cc1cccc(C)c1NC(=O)C(C)N1CCCCC1 (stereo not drawn)	Yes
CN1C(=O)/C(=C/c2cc3c(cc2Br)OCO3)NC1=S	No
Cc1cccc(NC(=O)CSc2cccc3cccnc23)c1C	No
Cc1cc(NC(=O)c2cccs2)ncc1NC(=O)C(C)C	Yes
COc1cc(SC)ccc1C(=O)NCCCn1ccnc1	Yes
CCSc1nc(NCCN(C)C)c2c3c(sc2n1)COC(C)(CC)C3 (stereo not drawn)	Yes
CC(=O)Oc1ccc(C(=O)Nc2cccc(C(=O)NC(C)(C)C)c2)cc1	Yes
O=C(CCNC(=O)c1ccccc1)NCC1CCCCC1	Yes
CC(C)CNC(=O)CCc1nc(-c2ccccc2)no1	Yes
Cc1cc(N2CCOCC2)nc(C(C)C)n1	Yes
CCOC(=O)N1CCN(Cc2ccc3c(c2)OCO3)CC1	Yes
Cc1ccc(NC(=O)Cn2cc(C(=O)C3CC3)c3ccccc32)cc1	No
CC(=O)c1c[nH]c(C(=O)NC2CCCCCC2)c1	Yes
Nc1ccc(NC(=O)NC2CCCCC2)cc1[N+](=O)[O-]	No
CS(=O)(=O)N1CCN=C1SCc1ccccc1	Yes
COc1cccc(/C=C/c2nc(C#N)c(NCC(C)C)o2)c1	No
Cc1cc(C(=O)O)ccc1NCc1ccncc1	Yes
CC(C)c1ccc(NC(=S)NCc2ccc3c(c2)OCO3)cc1	No
COc1ccc(/C=C2\SC(N3CCCCC3)=NC2=O)cc1OC	Yes
COC(=O)CN1C(=O)COc2ccc(S(=O)(=O)NCc3ccccc3)cc21	Yes
Cc1oc(-c2cccc(C(F)(F)F)c2)nc1CN1CCC[C@H]1CO	Yes
S=C(NCC1CCCO1)Nc1cccc(Cl)c1 (stereo not drawn)	Yes
COc1nc(N(C)C)nc(N(C#N)CCOC(C)=O)n1	Yes
Cc1ccc(C)c(C(=O)COC(=O)c2c(-c3ccccc3)noc2C)c1	No
